- method notes: Binding affinity to HIV reverse transcriptase RNase H activity assessed as dissociation constant
- Design: species or system Human immunodeficiency virus
observation type: Kd (nM)
Entry rule: numbers only, all in nM.

Record summary for `Clc1ccc(CSc2nnc(-c3cccs3)n2Cc2ccccc2)cc1` : reported Kd = 2000

----------
Each record here notes measured pIC50.
- method notes: Inhibition of Escherichia coli RNase H
pIC50: −log10 of the molar value.

• c1ccc(Cn2c(SCc3ccncc3)nnc2-c2ccccn2)cc1 = < 4.19
• Clc1ccc(CSc2nnc(-c3cccs3)n2Cc2ccccc2)cc1 = < 3.99
• COc1ccc(CSc2nnc(-c3ccco3)n2Cc2ccccc2)cc1 = < 3.98
• COc1ccc(CSc2nnc(-c3cccs3)n2Cc2ccccc2)cc1 = < 3.99
• O=C(CSC(=S)N(Cc1ccccc1)Cc1ccccc1)Nc1ccc(Cl)c(Cl)c1Cl = < 4.10
• O=C(CSC(=S)N(Cc1ccccc1)Cc1ccccc1)Nc1ccc(Cl)cc1Cl = < 3.77

Record summary for `COc1ccc(C)cc1NC(=O)CSC(=S)N(Cc1ccccc1)c1ccccc1` : reported pIC50 = < 4.10

Record summary for `Cc1ccc(NC(=O)CSC(=S)N(Cc2ccccc2)Cc2ccccc2)c(C)c1` : reported pIC50 = < 4.10

Record summary for `O=C(CSC(=S)N(Cc1ccccc1)c1ccccc1)Nc1ccc(Cl)c(Cl)c1Cl` : reported pIC50 = < 4.10

Record summary for `N#Cc1cccc(NC(=O)CSC(=S)N(Cc2ccccc2)c2ccccc2)c1` : reported pIC50 = < 4.10

Record summary for `COc1ccc(CSc2nnc(-c3ccccc3)n2Cc2ccccc2)cc1` : reported pIC50 = < 3.98

----------
Each record here notes measured IC50.
- method notes: Inhibition of Escherichia coli RNase H

Worked examples, 5 molecules total:
• c1ccc(Cn2c(SCc3ccncc3)nnc2-c2cccs2)cc1 = > 99.8 µM
• c1ccc(CSc2nnc(-c3ccccn3)n2Cc2ccccc2)cc1 = > 80 µM
• c1ccc(CSc2nnc(-c3cccs3)n2Cc2ccccc2)cc1 = 105 µM
• Clc1ccc(CSc2nnc(-c3ccco3)n2Cc2ccccc2)cc1 = > 104 µM
• COc1ccc(Cn2c(SCc3ccc(C(F)(F)F)cc3)nnc2-c2ccco2)cc1 = > 100 µM

Record summary for `N#Cc1cccc(NC(=O)CSC(=S)N(Cc2ccccc2)Cc2ccccc2)c1` : reported IC50 = > 80 µM

Record summary for `FC(F)(F)c1ccc(CSc2nnc(-c3ccco3)n2-c2ccccc2)cc1` : reported IC50 = > 80 µM

Record summary for `c1ccc(CSc2nnc(-c3ccco3)n2Cc2ccccc2)cc1` : reported IC50 = > 106 µM

Record summary for `c1ccc(CSc2nnc(-c3ccccc3)n2Cc2ccccc2)cc1` : reported IC50 = > 106 µM

Record summary for `Clc1ccc(CSc2nnc(-c3ccccc3)n2Cc2ccccc2)cc1` : reported IC50 = > 103 µM

Record summary for `c1ccc(Cn2c(SCc3ccncc3)nnc2-c2ccco2)cc1` : reported IC50 = > 80 µM

----------
- method notes: Therapeutic index, ratio of IC50 for HIV to EC50 for human MT4 cells
- Format: cell-based
- setup conditions: read-out: Ratio IC50/EC50
observation type: selectivity ratio
Enter the number alone.

* COc1ccc(CSc2nnc(-c3ccco3)n2Cc2ccccc2)cc1 | 0.2

Record summary for `c1ccc(CSc2nnc(-c3ccccc3)n2Cc2ccccc2)cc1` : reported selectivity ratio = 0.6

----------
Each record here notes measured EC50.
- System: Human immunodeficiency virus
- method notes: Antiviral activity against HIV infected in human MT4 cells assessed as inhibition virus-induced cytopathic effect by MTS assay
- Format: functional, organism-based
- setup conditions: Human immunodeficiency virus 1, MT4
Entry rule: numbers only, all in µM.

Record summary for `O=C(CSC(=S)N(Cc1ccccc1)Cc1ccccc1)Nc1ccc(Cl)c(Cl)c1Cl` : reported EC50 = 24.8

Record summary for `c1ccc(CSc2nnc(-c3ccccc3)n2Cc2ccccc2)cc1` : reported EC50 = 5.8

Record summary for `c1ccc(Cn2c(SCc3ccncc3)nnc2-c2cccs2)cc1` : reported EC50 = 4

Record summary for `c1ccc(Cn2c(SCc3ccncc3)nnc2-c2ccco2)cc1` : reported EC50 = 4.7

Record summary for `Clc1ccc(CSc2nnc(-c3cccs3)n2Cc2ccccc2)cc1` : reported EC50 = 1.4

Record summary for `COc1ccc(CSc2nnc(-c3ccco3)n2Cc2ccccc2)cc1` : reported EC50 = 5.9

----------
- method notes: Cytotoxicity against human MT4 cells by MTS assay
- Type: cell-based
- setup conditions: read-out: TC50 (the source's name)
Each record here notes measured CC50.
Entry rule: numbers only, all in µM.

Worked examples, 5 compounds total:
- COc1ccc(CSc2nnc(-c3ccco3)n2Cc2ccccc2)cc1: 1
- O=C(CSC(=S)N(Cc1ccccc1)Cc1ccccc1)Nc1ccc(Cl)cc1Cl: 105
- COc1ccc(CSc2nnc(-c3cccs3)n2Cc2ccccc2)cc1: 2.5
- Cc1ccc(NC(=O)CSC(=S)N(Cc2ccccc2)Cc2ccccc2)c(C)c1: 115
- COc1ccc(CSc2nnc(-c3ccccc3)n2Cc2ccccc2)cc1: 7.9

Record summary for `Clc1ccc(CSc2nnc(-c3ccco3)n2Cc2ccccc2)cc1` : reported CC50 = 15.5

Record summary for `Clc1ccc(CSc2nnc(-c3cccs3)n2Cc2ccccc2)cc1` : reported CC50 = 27.6

Record summary for `c1ccc(CSc2nnc(-c3ccccn3)n2Cc2ccccc2)cc1` : reported CC50 = 32

----------
- method notes: Inhibition of HIV reverse transcriptase
- Design: species or system Human immunodeficiency virus
observation type: IC50 (µM)
Entry rule: numbers only, all in µM.

* COc1ccc(Cn2c(SCc3ccc(C(F)(F)F)cc3)nnc2-c2ccco2)cc1 | 100
* c1ccc(Cn2c(SCc3ccncc3)nnc2-c2ccco2)cc1 | 25.2
* c1ccc(CSc2nnc(-c3ccccn3)n2Cc2ccccc2)cc1 | 30.4
* c1ccc(CSc2nnc(-c3ccco3)n2Cc2ccccc2)cc1 | 12.4
* Clc1ccc(CSc2nnc(-c3cccs3)n2Cc2ccccc2)cc1 | 103
* COc1ccc(CSc2nnc(-c3ccccc3)n2Cc2ccccc2)cc1 | 4.5

Record summary for `c1ccc(Cn2c(SCc3ccncc3)nnc2-c2ccccn2)cc1` : reported IC50 = 21.9

Record summary for `c1ccc(Cn2c(SCc3ccncc3)nnc2-c2cccs2)cc1` : reported IC50 = 11.6

----------
Each record here notes measured pIC50.
- method notes: Inhibition of HIV reverse transcriptase
- Set-up: species or system Human immunodeficiency virus
// returns pIC50 (minus log10 of molar concentration), number only

• Clc1ccc(CSc2nnc(-c3ccco3)n2Cc2ccccc2)cc1 = 4.25
• FC(F)(F)c1ccc(CSc2nnc(-c3ccco3)n2-c2ccccc2)cc1 = 4.10
• c1ccc(CSc2nnc(-c3ccccc3)n2Cc2ccccc2)cc1 = 4.34
• c1ccc(CSc2nnc(-c3cccs3)n2Cc2ccccc2)cc1 = 4.56

Next compound, please.
Record summary for `COc1ccc(CSc2nnc(-c3ccco3)n2Cc2ccccc2)cc1` : reported pIC50 = 4.24

----------
- method notes: Therapeutic index, ratio of IC50 for HIV to EC50 for human MT4 cells
- Format: cell-based
- setup conditions: read-out: Ratio IC50/EC50
# thresholds on selectivity ratio define classes: lower range (below 3), middle range (3 to below 20), upper range (20 or more)

- c1ccc(Cn2c(SCc3ccncc3)nnc2-c2ccccn2)cc1: upper range

-- ask Into which category would you place `COc1ccc(CSc2nnc(-c3cccs3)n2Cc2ccccc2)cc1` ?
-- reply lower range

-- ask Into which category would you place `O=C(CSC(=S)N(Cc1ccccc1)Cc1ccccc1)Nc1ccc(Cl)cc1Cl` ?
-- reply upper range

-- ask Into which category would you place `Cc1ccc(NC(=O)CSC(=S)N(Cc2ccccc2)Cc2ccccc2)c(C)c1` ?
-- reply upper range

-- ask Into which category would you place `COc1ccc(CSc2nnc(-c3ccccc3)n2Cc2ccccc2)cc1` ?
-- reply middle range

-- ask Into which category would you place `c1ccc(Cn2c(SCc3ccncc3)nnc2-c2cccs2)cc1` ?
-- reply upper range

-- ask Into which category would you place `Clc1ccc(CSc2nnc(-c3ccco3)n2Cc2ccccc2)cc1` ?
-- reply middle range

-- ask Into which category would you place `c1ccc(CSc2nnc(-c3ccccn3)n2Cc2ccccc2)cc1` ?
-- reply middle range

-- ask Into which category would you place `FC(F)(F)c1ccc(CSc2nnc(-c3ccco3)n2-c2ccccc2)cc1` ?
-- reply lower range

-- ask Into which category would you place `c1ccc(CSc2nnc(-c3cccs3)n2Cc2ccccc2)cc1` ?
-- reply upper range

-- ask Into which category would you place `c1ccc(CSc2nnc(-c3ccco3)n2Cc2ccccc2)cc1` ?
-- reply middle range

----------
Each record here notes measured CC50.
- method notes: Cytotoxicity against human MT4 cells by MTS assay
- Type: cell-based
- setup conditions: read-out: TC50 (the source's name)

Worked examples, 6 compounds total:
- N#Cc1cccc(NC(=O)CSC(=S)N(Cc2ccccc2)Cc2ccccc2)c1: > 116 µM
- c1ccc(Cn2c(SCc3ccncc3)nnc2-c2cccs2)cc1: > 105 µM
- c1ccc(CSc2nnc(-c3cccs3)n2Cc2ccccc2)cc1: > 132 µM
- FC(F)(F)c1ccc(CSc2nnc(-c3ccco3)n2-c2ccccc2)cc1: 16.9 µM
- c1ccc(Cn2c(SCc3ccncc3)nnc2-c2ccccn2)cc1: > 85.2 µM
- O=C(CSC(=S)N(Cc1ccccc1)Cc1ccccc1)Nc1ccc(Cl)c(Cl)c1Cl: > 98.2 µM

Record summary for `c1ccc(CSc2nnc(-c3ccco3)n2Cc2ccccc2)cc1` : reported CC50 = 59.5 µM

Record summary for `c1ccc(CSc2nnc(-c3ccccc3)n2Cc2ccccc2)cc1` : reported CC50 = 3.1 µM
